inhibition: recorded values
# study.system: Tyrosinase (Agaricus bisporus)
# Sequence (whole entry): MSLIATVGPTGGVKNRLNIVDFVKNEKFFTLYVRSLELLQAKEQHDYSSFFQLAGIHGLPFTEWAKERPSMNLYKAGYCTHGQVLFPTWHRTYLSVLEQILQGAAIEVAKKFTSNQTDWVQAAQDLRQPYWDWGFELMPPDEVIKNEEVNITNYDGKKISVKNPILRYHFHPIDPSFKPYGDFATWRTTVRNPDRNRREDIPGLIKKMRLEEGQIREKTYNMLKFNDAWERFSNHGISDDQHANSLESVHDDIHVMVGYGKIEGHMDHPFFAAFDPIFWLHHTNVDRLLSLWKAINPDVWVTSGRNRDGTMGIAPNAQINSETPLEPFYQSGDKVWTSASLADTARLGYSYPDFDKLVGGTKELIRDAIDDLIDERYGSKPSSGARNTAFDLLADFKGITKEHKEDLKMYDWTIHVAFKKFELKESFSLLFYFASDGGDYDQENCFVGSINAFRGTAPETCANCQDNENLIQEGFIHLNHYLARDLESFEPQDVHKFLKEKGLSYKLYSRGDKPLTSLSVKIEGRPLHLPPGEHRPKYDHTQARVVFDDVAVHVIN
# experimental.details: Inhibition of diphenolase activity of mushroom tyrosinase at 0.055 mM
assay.endpoint: inhibition

structure_as_smiles=C[C@H]1O[C@H](OC[C@H]2O[C@@H](Oc3c(-c4ccc(O)cc4)oc4cc(O)c(O)c(O)c4c3=O)[C@H](O)[C@@H](O)[C@@H]2O)[C@@H](O)[C@@H](O)[C@@H]1O study_system="Tyrosinase (Agaricus bisporus)" value_measured=27.1%
structure_as_smiles=O=c1cc(-c2ccc(O)cc2)oc2c(O)c(O)c(O)c(O)c12 study_system="Tyrosinase (Agaricus bisporus)" value_measured=5.21%
structure_as_smiles=C[C@@H]1O[C@@H](OC[C@H]2O[C@@H](Oc3c(-c4ccc(O)c(O)c4)oc4cc(O)cc(O)c4c3=O)[C@H](O)[C@@H](O)[C@@H]2O)[C@H](O)[C@H](O)[C@H]1O study_system="Tyrosinase (Agaricus bisporus)" value_measured=12.7%
structure_as_smiles=O=C(/C=C/c1ccc(O)cc1)OC[C@H]1O[C@@H](Oc2c(-c3ccc(O)c(O)c3)oc3cc(O)cc(O)c3c2=O)[C@H](O)[C@@H](O)[C@@H]1O study_system="Tyrosinase (Agaricus bisporus)" value_measured=21.9%
